# Tested Target: human insulin-like growth factor-I (IGF-I) (human, UniProt P05019 49-118)
# Protocol Details: cell-based or functional assay
Quantity Kind: Max % Inhibition (333.3 nM), n = 2, IGF-I pTYR, BxPC3 cells (%)
Write the answer as a number in %, unit excluded.

Query: Would you kindly share the measured Max % Inhibition (333.3 nM), n = 2, IGF-I pTYR, BxPC3 cells for mAb 7.251.3 (antibody, V domains shown, Fully human XenoMouse hybridoma mAb, lambda light chain (V1-13/JL2); also called ATCC PTA-7422) VH: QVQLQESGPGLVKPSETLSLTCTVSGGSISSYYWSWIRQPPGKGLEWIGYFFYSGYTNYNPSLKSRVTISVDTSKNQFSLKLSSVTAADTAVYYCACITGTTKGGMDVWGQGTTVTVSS VL: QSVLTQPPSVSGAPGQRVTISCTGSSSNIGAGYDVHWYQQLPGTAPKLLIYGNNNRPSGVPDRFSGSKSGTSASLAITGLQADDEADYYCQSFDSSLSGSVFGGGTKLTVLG ?
Result: 95.2

# credit: patent US20070196376A1
